target: GCase (Homo sapiens, UniProt P04062); construct: endogenous in cells; host or cells: HeLa cells; test: activation of GCase in a live cell PFB assay in HELA cells; type: cell-based; conditions: EC50 given as range classes
Sequence (P04062 40-536): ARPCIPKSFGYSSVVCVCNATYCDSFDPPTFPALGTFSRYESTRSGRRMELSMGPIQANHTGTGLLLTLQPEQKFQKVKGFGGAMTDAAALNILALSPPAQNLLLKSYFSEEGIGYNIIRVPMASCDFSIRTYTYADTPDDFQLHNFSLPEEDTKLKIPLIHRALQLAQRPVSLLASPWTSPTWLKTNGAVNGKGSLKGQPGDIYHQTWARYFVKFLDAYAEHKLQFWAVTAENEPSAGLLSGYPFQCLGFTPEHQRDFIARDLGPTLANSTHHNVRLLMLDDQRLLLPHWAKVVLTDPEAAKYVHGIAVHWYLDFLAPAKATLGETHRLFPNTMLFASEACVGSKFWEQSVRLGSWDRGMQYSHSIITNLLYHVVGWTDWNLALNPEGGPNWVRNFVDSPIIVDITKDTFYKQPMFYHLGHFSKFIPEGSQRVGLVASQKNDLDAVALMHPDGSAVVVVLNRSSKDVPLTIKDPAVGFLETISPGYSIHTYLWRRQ
Experimental endpoint: EC50

Here is how some compounds turned out for EC50.
Cc1nc(N2CC3(CCN(c4ncc5cnn(C(C)(C)C)c5n4)C3)C2)cc(C(F)(F)F)n1 [Cmpd 629] | 10 to 50 µM
FC(F)(F)c1cc(N2CC3(CCN(c4cncc(-c5nncs5)n4)C3)C2)ccn1 [Cmpd 425] | 50 to 100 µM
Cc1ncc(N2CC3(CCN(c4cnc5cnn(C6COC6)c5n4)C3)C2)c(C(F)(F)F)n1 [Cmpd 597] | > 100 µM
Cn1c(N2CCC3(CN(c4cnc(C(F)(F)F)nc4)C3)C2)nc2c(cnn2CC(F)F)c1=O [Cmpd 988] | < 10 µM

Enquiry: API: value(readout=EC50, system=GCase (Homo sapiens, UniProt P04062)) for record O=C1N(c2cccc(C(F)(F)F)n2)CCC12CCN(c1cnc3cnn(CC(F)F)c3n1)C2 (centres unmarked) [Cmpd 203]
Return: 10 to 50 µM

Enquiry: Checklist item: EC50 tested on GCase (Homo sapiens, UniProt P04062), entry O=C1N(c2cnc(C(F)(F)F)cn2)C(=O)C2(CCN(c3cnc4cnn(CC(F)F)c4n3)CC2)N1Cc1cc(F)cc(F)c1 [Cmpd 821] , value?
Return: < 10 µM

Enquiry: Short answer please: EC50, GCase (Homo sapiens, UniProt P04062), entry COc1ccc(C(F)(F)F)c(N2CCC3(CCN(c4cnc5cnn(CC(F)F)c5n4)CC3)C2=O)n1 [Cmpd 784]
Return: < 10 µM

Enquiry: Provide value of EC50 for this record tested with GCase (Homo sapiens, UniProt P04062): O=C1CC2(CN(c3ccnc(C(F)(F)F)c3)C2)CN1c1ncc2cnn(CC(F)F)c2n1 [Cmpd 1005]
Return: 10 to 50 µM

Enquiry: Request body: readout EC50, system GCase (Homo sapiens, UniProt P04062), query Cc1ncc(N2CC3(CCN(c4ncc5cnn(CC(F)(F)F)c5n4)C3)C2)c(C(F)(F)F)n1 [Cmpd 596] . Return the value.
Return: < 10 µM

Enquiry: Under GCase (Homo sapiens, UniProt P04062): EC50 value of Cc1nc(N2CCC3(CC2)CN(c2cnc4cnn(CC(F)(F)F)c4n2)C3)cc(C(F)(F)F)n1 [Cmpd 587] ?
Return: 10 to 50 µM

Enquiry: Find the measured EC50: item Cc1ncc(N2CC3(CCN(c4cnc5cnn(CC(F)(F)F)c5n4)C3)C2)c(C(F)(F)F)n1 [Cmpd 594] , target or system GCase (Homo sapiens, UniProt P04062).
Return: > 100 µM

Enquiry: # returns recorded EC50 (system: GCase (Homo sapiens, UniProt P04062)) for FC(F)Cn1ncc2ncc(N3CCOC4(CCN(c5ccc(C(F)(F)F)nc5)CC4)C3)nc21 [Cmpd 209]
Return: < 10 µM

---

Some molecules, each annotated with its measured pEC50.
target: GCase (Homo sapiens, UniProt P04062); construct: endogenous in cells; host or cells: HeLa cells; test: activation of GCase in a live cell PFB assay in HELA cells; format: cell-based; settings: activation of GCase, EC50 ranges
pEC50: −log10 of the molar value.

Below: 4 molecules and their reported pEC50.
Cc1cc(N2CC3(CCN(c4ncc5c(C)nn(CC(C)(F)F)c5n4)C3)C2)nc(C(F)(F)F)n1 | > 5.00
Cc1nc(N2CC3(CCN(c4ncc5cnn(CC(F)(F)F)c5n4)CC3)C2)cc(C(F)(F)F)n1 | > 5.00
FC(F)Cn1ncc2ncc(N3CCC4(CCN(c5cnc(C(F)(F)F)cn5)C4)CC3)nc21 | > 5.00
COc1cc(N2CC3(CCN(c4cnc5cnn(CC(F)F)c5n4)C3)C2)ccn1 | 4.30 to 5.00

Enquiry: Query the reported pEC50 for GCase (Homo sapiens, UniProt P04062); item: Cc1nn(CC(F)F)c2nc(N3CCC4(CC3)CCN(c3ccnc(C(F)(F)F)n3)C4=O)cnc12
Return: > 5.00

Enquiry: Form field: pEC50 recorded for O=C1N(c2nccc(C(F)(F)F)n2)CCC12CCN(c1ncc3cnn(CC(F)F)c3n1)CC2 with GCase (Homo sapiens, UniProt P04062) (enter value)
Return: 4.30 to 5.00

Enquiry: Request body: readout pEC50, system GCase (Homo sapiens, UniProt P04062), query FC(F)(F)c1cc(N2CC3(CCN(c4cnc5cnn(C[C@@H]6CCO6)c5n4)C3)C2)ccn1 . Return the value.
Return: > 5.00

Enquiry: Entry Cc1ncc(C(F)(F)F)nc1N1CCC2(CCN(c3cnc4cnn(CC(F)F)c4n3)CC2)C1=O , system GCase (Homo sapiens, UniProt P04062): what pEC50 was measured?
Return: 4.30 to 5.00

Enquiry: Lookup: pEC50 / GCase (Homo sapiens, UniProt P04062) / FC(F)Cn1ncc2cnc(N3CCC4(CN(c5ccnc(C(F)(F)F)c5)C4)C3)cc21
Return: 4.30 to 5.00

Data origin, for the record: patent US20250034170A1
